Reference source: patent US20200317776A1

experimental target: T1, human TREM2 expressed on cells (human, UniProt Q9NZC2 19-230)
T1 sequence: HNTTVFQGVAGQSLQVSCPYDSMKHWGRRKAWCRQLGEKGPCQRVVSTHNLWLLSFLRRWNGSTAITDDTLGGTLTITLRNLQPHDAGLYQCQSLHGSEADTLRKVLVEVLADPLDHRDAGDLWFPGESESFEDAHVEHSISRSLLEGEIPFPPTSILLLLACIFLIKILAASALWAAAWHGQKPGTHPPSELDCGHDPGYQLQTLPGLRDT
test method notes: cell-based or functional assay
Consider the following binders; for each one, report its DC viability (AUC).
Write the number in AUC without appending the unit.

binder AL2p-46 (antibody, V domains shown, Fab and IgG formats under one id) VH: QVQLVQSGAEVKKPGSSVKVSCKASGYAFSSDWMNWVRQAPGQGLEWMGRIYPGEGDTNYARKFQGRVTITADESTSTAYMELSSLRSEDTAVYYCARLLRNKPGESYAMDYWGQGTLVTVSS VL: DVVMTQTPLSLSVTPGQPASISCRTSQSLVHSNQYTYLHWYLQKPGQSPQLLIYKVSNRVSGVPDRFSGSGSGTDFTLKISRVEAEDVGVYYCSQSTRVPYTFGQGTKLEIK , DC viability (AUC) observed: 597000

Field DC viability (AUC) (entry AL2p-57 (antibody, V domains shown, Fab and IgG formats under one id) VH: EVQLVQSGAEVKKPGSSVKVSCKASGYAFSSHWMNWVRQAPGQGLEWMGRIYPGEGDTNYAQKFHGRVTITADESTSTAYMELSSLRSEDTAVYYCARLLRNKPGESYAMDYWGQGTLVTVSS VL: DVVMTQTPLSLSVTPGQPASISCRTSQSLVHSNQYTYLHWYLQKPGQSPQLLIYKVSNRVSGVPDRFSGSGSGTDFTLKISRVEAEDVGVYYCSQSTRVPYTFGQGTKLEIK ) reads 506000
